This collection of values is drawn from patent US20230287120A1.

- SYSTEM NAME: T1, human DLL3 extracellular domain (ECD) with C-terminal 8xHis tag and Avi tag (human, UniProt Q9NYJ7 27-492)
- T1 construct: extracellular domain; Expressed in Expi293, purified by IMAC and SEC; also called huDLL3; not shown: Avi tag
- T1 sequence: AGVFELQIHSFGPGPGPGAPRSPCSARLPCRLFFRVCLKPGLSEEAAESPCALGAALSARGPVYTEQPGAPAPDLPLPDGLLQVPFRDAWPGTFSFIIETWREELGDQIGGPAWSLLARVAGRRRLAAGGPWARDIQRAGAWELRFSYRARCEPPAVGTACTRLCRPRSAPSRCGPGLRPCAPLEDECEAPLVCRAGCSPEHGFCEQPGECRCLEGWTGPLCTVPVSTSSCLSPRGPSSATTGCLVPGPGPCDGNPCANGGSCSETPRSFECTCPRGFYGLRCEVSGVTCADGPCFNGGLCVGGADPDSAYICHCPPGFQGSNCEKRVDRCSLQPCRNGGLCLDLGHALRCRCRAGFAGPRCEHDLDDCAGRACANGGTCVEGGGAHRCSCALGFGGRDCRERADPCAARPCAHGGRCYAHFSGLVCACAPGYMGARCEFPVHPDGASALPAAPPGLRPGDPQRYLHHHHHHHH
- PROCEDURE DETAILS: SPR (Biacore), 37 C; scFv-Fc captured on chip, human DLL3 ECD in solution; 1:1 Langmuir fit
READOUT: Kd
Kindly format the answer as number then unit.

Task: # lookup: Kd of 10G1-K scFv-Fc fusion (Fc fusion, not shown: a dimerising Fc or GST, scFv-Fc expressed in Expi293) scFv: EVQLLESGGGLVQPGGSLRLSCAASGFTFSSYAMNWVRQAPGKGLEWVSTISGSGGSTYYADSVKGRFTISRDNSKNTLYLQMNSLRAEDTAVFYCAIDPEYYDILTGGDYWGQGTLVTVSSGGGGSGGGGSGGGGSGGGGSDIQMTQSPSAMSASVGDRVTITCRASQGISNYLAWFQQKPGKVPKRLIYAASSLQSGVPSRFSGSGSGTEFTLTISSLQPEDFATYFCLQHDSFPLTFGGGTKVEIK
Result: 26.3 nM
